System: P388 leukemia ip, CD2F1 mice, survival T/C
Assay: NCI In Vivo Anticancer Drug Screen. Data for tumor model P388 Leukemia (intraperitoneal) in CD2F1 (CDF1) mice
Conditions: endpoint: median survival time; dose: 100.0 mg/kg/injection; schedule: Q01DX009 (ip); vehicle: saline with Tween-80; higher = longer survival
Toxic doses and inconclusive results are not listed.
Documented T/C across a set of compounds

Worked cases, T/C given:
Cc1cc(=O)[nH]c(N/N=C/c2ccccc2O)n1
90 % of control
BrC1(Br)C2CCCCCCC21 (configuration not stated)
100 % of control
COc1cc(OC)c(/C=C\c2nccc3ccccc23)c(OC)c1
96 % of control

What value of T/C has been recorded for this entry: COC(=O)C(O)NC(N)=O (configuration not stated)
94 % of control

And what about the compound CCS/C(C#N)=C(/Br)c1ccc(OC)cc1 ?
100 % of control

And the next one, Clc1ccc(-n2nnc3cc(Cl)ccc32)c(Cl)c1 ?
101 % of control

Again, but for O=c1cccc(Cl)[nH]1
100 % of control
